Species on record: Homo sapiens
test-protocol: Inhibition of Abl (unknown origin) assessed as residual activity at 10 uM relative to control
A collection of compounds and their measured Activity
property-measured: Activity

1. CN1CCC(N2CCN(c3ncc4cc(-c5c(Cl)cccc5Cl)c(=O)n(C)c4n3)CC2)CC1 | 20.8%
2. CN1CCC(N2CCN(c3ncc4cc(-c5c(Cl)cc(NC(=O)OC(C)(C)C)cc5Cl)c(=O)n(C)c4n3)CC2)CC1 | 8.5%
3. CN1CCC(N2CCN(c3ncc4cc(-c5c(Cl)cc(NC(=O)C(C)(C)C)cc5Cl)c(=O)n(C)c4n3)CC2)CC1 | 3.2%
4. Cn1c(=O)c(-c2c(Cl)cc(NC(=O)OC(C)(C)C)cc2Cl)cc2cnc(N3CCN(c4ccncc4)CC3)nc21 | 0%

====

test-protocol: Cytotoxicity against mouse N2a695 cells assessed as reduction in cell viability at 10 uM incubated for 24 hrs by MTT assay
Format: cell-based
property-measured: Activity

1. CN1CCN(c2ncc3cc(-c4cc(Cl)cc(Cl)c4)c(=O)n(C)c3n2)CC1 | Non-Toxic
2. CN1CCC(N2CCN(c3ncc4cc(-c5c(Cl)cc(NC(=O)C(C)(C)C)cc5Cl)c(=O)n(C)c4n3)CC2)CC1 | Non-Toxic
3. Cn1c(=O)c(-c2c(Cl)cccc2Cl)cc2cnc(N3CCC(N4CCCCC4)CC3)nc21 | Non-Toxic
4. CN1CCC(N2CCN(c3ncc4cc(-c5c(Cl)cc(NC(=O)OC(C)(C)C)cc5Cl)c(=O)n(C)c4n3)CC2)CC1 | Toxic
5. Cl.Cn1c(=O)c(-c2c(Cl)cccc2Cl)cc2cnc(N3CCN(C4CCNCC4)CC3)nc21 | Non-Toxic

====

measured-target: Beta-secretase 1 (Mus musculus) (UniProt P56818)
Sequence (P56818 whole entry): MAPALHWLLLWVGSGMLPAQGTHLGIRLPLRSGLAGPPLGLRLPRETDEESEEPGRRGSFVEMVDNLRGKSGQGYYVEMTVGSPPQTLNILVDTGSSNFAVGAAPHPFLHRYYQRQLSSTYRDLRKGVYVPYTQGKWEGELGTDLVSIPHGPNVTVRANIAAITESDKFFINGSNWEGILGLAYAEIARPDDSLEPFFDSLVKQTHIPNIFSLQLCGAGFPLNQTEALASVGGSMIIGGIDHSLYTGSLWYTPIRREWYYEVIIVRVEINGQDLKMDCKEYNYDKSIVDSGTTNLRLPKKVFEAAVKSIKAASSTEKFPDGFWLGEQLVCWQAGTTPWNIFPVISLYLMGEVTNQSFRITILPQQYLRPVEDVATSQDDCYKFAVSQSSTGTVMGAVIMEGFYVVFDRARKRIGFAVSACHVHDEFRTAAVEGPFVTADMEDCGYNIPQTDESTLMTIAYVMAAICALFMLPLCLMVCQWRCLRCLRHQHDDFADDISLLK
test-protocol: Inhibition of BACE1 in mouse N2a695 cells assessed as reduction in Abeta40 production at 10 uM incubated for 6 hrs by ELISA
Format: cell-based
Active and inactive are the calls of the source. The calls are words filed in the database; no cut-off is given here.
property-measured: inhibition

1) Cn1c(=O)c(-c2c(Cl)cccc2Cl)cc2cnc(N3CCC(N4CCCCC4)CC3)nc21 | Active
2) CN1CCN(c2ncc3cc(-c4cc(Cl)cc(Cl)c4)c(=O)n(C)c3n2)CC1 | Active
3) CN1CCC(N2CCN(c3ncc4cc(-c5c(Cl)cc(NC(=O)C(C)(C)C)cc5Cl)c(=O)n(C)c4n3)CC2)CC1 | Active
4) CN1CCC(N2CCN(c3ncc4cc(-c5c(Cl)cc(NC(=O)OC(C)(C)C)cc5Cl)c(=O)n(C)c4n3)CC2)CC1 | Active
5) Cn1c(=O)c(-c2c(Cl)cc(NC(=O)OC(C)(C)C)cc2Cl)cc2cnc(N3CCN(c4ccncc4)CC3)nc21 | Active
6) CN1CCC(N2CCN(c3ncc4cc(-c5c(Cl)cccc5Cl)c(=O)n(C)c4n3)CC2)CC1 | Active
7) Cn1c(=O)c(-c2c(Cl)cccc2Cl)cc2cnc(N3CCN(Cc4ccccc4)CC3)nc21 | Active
8) Cc1ccc(NC(=O)c2ccc(CN3CCN(C)CC3)cc2)cc1Nc1nccc(-c2cccnc2)n1 | Active
9) Cl.Cn1c(=O)c(-c2c(Cl)cccc2Cl)cc2cnc(N3CCN(C4CCNCC4)CC3)nc21 | Active
10) CN1CCN(c2ncc3cc(-c4c(Cl)cc(NC(=O)C(C)(C)C)cc4Cl)c(=O)n(C)c3n2)CC1 | Active
